assay_overview: pKa measurement by titration (AT-210 device, neutralization middle point)
Type: physicochemical
reported_conditions: —NHSO2— dissociation group, 25° C., THF/H2O=6/4
endpoint_name: pKa value

CCCCCCCCOc1ccc(C(C)(C)CC(C)(C)C)cc1S(=O)(=O)Nc1ccc(OCCOC)c(S(=O)(=O)NC(C)(C)c2n[nH]c3c(Cl)c(C(C)(C)C)nn23)c1; more than 12
CCCCCCCCOc1ccc(NS(=O)(=O)c2cc(C(C)(C)CC(C)(C)C)ccc2OCCCCCCCC)cc1S(=O)(=O)NCC(C)c1n[nH]c2cc(CC)nn12 (stereo not drawn); more than 12
CCCCCCCCOc1ccc(NS(=O)(=O)c2cc(C(C)(C)CC(C)(C)C)ccc2OCCCCCCCC)cc1S(=O)(=O)NCC(C)c1n[nH]c2c(Cl)c(C(C)(C)C)nn12 (stereo not drawn); more than 12
